This collection of values is drawn from patent US20230203055A1.

System: MIA PaCa-2 cells
Assay: Detection of cell proliferation inhibition, MIA PaCa-2 (Cell-titer Glo, 96 h)
Format: cell-based
Details: Homo sapiens, read-out: IC50 (nM) MIA PaCa-2
measured.parameter: IC50 (nM)

a = C=CC(=O)N1CCN(c2nc(=O)n(-c3c(C)ccnc3C(C)C)c3c(F)c4c(cc23)OCc2ccc3ccccc3c2-4)[C@@H](C)C1
b = C=CC(=O)N1CCN(c2nc(=O)n(-c3c(C)ccnc3C(C)C)c3nc4c(cc23)OCc2cccc(O)c2-4)[C@@H](C)C1
Q: Form field 'greater IC50' accepts a or b ; which applies? The response must carry the label of the picked entry.
Ans: a
(a: 2500 nM, b: 1340 nM)

----------
Test system: MIA PaCa-2 cells
Assay: Detection of cell proliferation inhibition, MIA PaCa-2 (Cell-titer Glo, 96 h)
Assay type: cell-based
Settings: Homo sapiens, read-out: IC50 (nM) MIA PaCa-2
measured.parameter: IC50

Below, 2 compounds whose answers are already recorded.
{"columns": ["compound", "IC50"],
 "data": [
  ["C=CC(=O)N1CCN(c2nc(=O)n(-c3c(C(C)C)ncc4c3CCC4)c3c4c(c(Cl)cc23)-c2c(ccc(F)c2F)CO4)[C@@H](C)C1", "66 nM"],
  ["C=CC(=O)N1CCN(c2nc(=O)n(-c3c(C)ccnc3C(C)C)c3c4c(c(Cl)cc23)-c2c(F)cccc2CCO4)[C@@H](C)C1", "< 50 nM"]
]}

Now examine the next entry.
Q: Looking for the measured IC50 of C=CC(=O)N1CCN(c2nc(=O)n(-c3c(C)ccnc3C(C)C)c3c4c(c(Cl)cc23)-c2c(F)cccc2CO4)C2CC21 (stereo not drawn) , can you help?
Ans: < 50 nM

----------
Tested on: H358 cells
Assay: Detection of cell proliferation inhibition, H358 (Cell-titer Glo, 96 h)
Format: cell-based
Conditions: Homo sapiens, NCI-H358, read-out: IC50 H358
measured.parameter: IC50

Q: Looking for the measured IC50 of `C=CC(=O)N1CCN(c2nc(=O)n(-c3c(C)ccnc3C(C)C)c3c4c(c(F)cc23)-c2c(O)cccc2CO4)[C@@H](C)C1` , can you help?
Ans: > 10 µM

----------
Tested on: H358 cells
Assay: Detection of cell proliferation inhibition, H358 (Cell-titer Glo, 96 h)
Assay type: cell-based
Details: read-out: IC50 (nM) H358
measured.parameter: IC50 (nM)

1 = C=CC(=O)N1CCN(c2nc(=O)n(-c3c(C)ccnc3C(C)C)c3c(F)c4c(cc23)OCc2ccccc2-4)[C@@H](C)C1
2 = C=CC(=O)N1CCN(c2nc(=O)n(-c3c(C)ccnc3C(C)C)c3c4c(c(C(F)(F)F)cc23)-c2c(F)cccc2CO4)[C@@H](C)C1
Q: Hello, I am sorting some records. Could you say if 1 or 2 has the smaller IC50 value? The response must carry the label of the picked entry.
Ans: 2
(2: 80.6 nM, 1: 295 nM)

1 = C=CC(=O)N1CCN(c2nc(=O)n(-c3c(C)ccnc3C(C)C)c3c4c(c(F)cc23)-c2c(Cl)cccc2CO4)[C@@H](C)C1
2 = C=CC(=O)N1CCN(c2nc(=O)n(-c3c(C)ccnc3C(C)C)c3c(F)c4c(cc23)OCc2cccc(F)c2-4)[C@@H](C)C1
3 = C=CC(=O)N1CCN(c2nc(=O)n(-c3c(C)ccnc3C(C)C)c3c4c(c(F)cc23)-c2c(F)cccc2CO4)[C@@H](C)C1
Q: Order the items by recorded IC50; the first position goes to the largest value. Write the labels in rank order as requested.
Ans: 2, 1, 3

----------
Tested on: MIA PaCa-2 cells
Assay: Detection of cell proliferation inhibition, MIA PaCa-2 (Cell-titer Glo, 96 h)
Type: cell-based
Details: Homo sapiens, read-out: IC50 (nM) MIA PaCa-2
measured.parameter: IC50 (nM)

Below, 5 compounds whose answers are already recorded.
{"columns": ["compound", "u", "IC50"],
 "data": [
  ["C=CC(=O)N1CCN(c2nc(=O)n(-c3c(C)ccnc3C(C)C)c3c(F)c4c(cc23)OCc2ccc(F)c(F)c2-4)[C@@H](C)C1", "nM", 317],
  ["C=CC(=O)N1CCN(c2nc(=O)n(-c3c(C)ccnc3C(C)C)c3c(F)c4c(cc23)OCCc2ccccc2-4)[C@@H](C)C1", "nM", 85],
  ["C=CC(=O)N1CCN(c2nc(=O)n(-c3c(C)ccnc3C(C)C)c3nc4c(cc23)OCc2ccccc2-4)[C@@H](C)C1", "nM", 442],
  ["C=C(F)C(=O)N1CCN(c2nc(=O)n(-c3c(C)ccnc3C(C)C)c3c4c(c(Cl)cc23)-c2c(ccc(F)c2F)CO4)[C@@H](C)C1", "nM", 908],
  ["C=CC(=O)N1CCN(c2nc(=O)n(-c3c(C)ccnc3C(C)C)c3c4c(c(F)cc23)-c2c(cccc2OC)CO4)[C@@H](C)C1", "nM", 964]
]}

a = C=CC(=O)N1CCN(c2nc(=O)n(-c3c(C)ccnc3C(C)C)c3c4c(c(Cl)cc23)-c2cnccc2CO4)[C@@H](C)C1
b = C=CC(=O)N1CCN(c2nc(=O)n(-c3c(C)ccnc3C(C)C)c3c4c(c(Cl)cc23)-c2cccnc2CO4)[C@@H](C)C1
c = C=CC(=O)N1CCN(c2nc(=O)n(-c3c(C)ccnc3C(C)C)c3c4c(c(F)cc23)-c2c(F)cccc2CO4)CC1CC#N (stereo not shown)
d = C=CC(=O)N1CCN(c2nc(=O)n(-c3c(C)ccnc3C(C)C)c3c(F)c4c(cc23)OCc2cccc(F)c2-4)CC1CC#N (stereo not shown)
Q: Order the items by recorded IC50; the first position goes to the largest value. Write the labels in rank order as requested.
Ans: d, a, c, b

----------
System: MIA PaCa-2 cells
Experiment: Detection of cell proliferation inhibition, MIA PaCa-2 (Cell-titer Glo, 96 h)
Type: cell-based
Conditions: Homo sapiens, read-out: IC50 (nM) MIA PaCa-2
measured.parameter: IC50 (nM)

{"columns": ["compound", "IC50 / nM"],
 "data": [
  ["C=CC(=O)N1CCN(c2nc(=O)n(-c3c(C)ccnc3C(C)C)c3c(F)c4c(cc23)OCc2cccc(O)c2-4)[C@@H](C)C1 [Example 10]", 3110]
]}

A = C=CC(=O)N1CCN(c2nc(=O)n(-c3c(C)ccnc3C(C)C)c3c4c(c(F)cc23)-c2c(ccc3ccccc23)CO4)[C@@H](C)C1 [Example 21]
B = C=CC(=O)N1CCN(c2nc(=O)n(-c3c(C)ccnc3C(C)C)c3c4c(c(Cl)cc23)-c2c(F)ccc(O)c2CO4)[C@@H](C)C1 [Example 28]
Q: Form field 'greater IC50' accepts A or B ; which applies? The response must carry the label of the picked entry.
Ans: A
(A: 1700 nM, B: 85 nM)

----------
Entries annotated with measured IC50
System: MIA PaCa-2 cells
Assay: Detection of cell proliferation inhibition, MIA PaCa-2 (Cell-titer Glo, 96 h)
Type: cell-based
Conditions: Homo sapiens, read-out: IC50 (nM) MIA PaCa-2

Below, 2 compounds whose answers are already recorded.
{"columns": ["chemical.structure", "IC50"],
 "data": [
  ["C=CC(=O)N1CCN(c2nc(=O)n(-c3c(C)ccnc3C(C)C)c3c4c(c(Cl)cc23)-c2c(F)ccc(F)c2CO4)[C@@H](C)C1", "< 50 nM"],
  ["[2H]C1([2H])Oc2c(c(Cl)cc3c(N4CCN(C(=O)C=C)C[C@@H]4C)nc(=O)n(-c4c(C)ccnc4C(C)C)c23)-c2c1ccc(F)c2F", "< 50 nM"]
]}

Q: Looking for the measured IC50 of `C=CC(=O)N1CCN(c2nc(=O)n(-c3c(CC)ncnc3CC)c3c4c(c(Cl)cc23)-c2c(F)cccc2CCO4)[C@@H](C)C1` , can you help?
Ans: < 50 nM

----------
Test system: H358 cells
Assay: Detection of cell proliferation inhibition, H358 (Cell-titer Glo, 96 h)
Assay type: cell-based
Conditions: read-out: IC50 (nM) H358
Entries annotated with measured IC50
Your answer is read as nM, so omit the unit and give the number.

{"columns": ["chemical.structure", "IC50 [nM]"],
 "data": [
  ["C=CC(=O)N1CCN(c2nc(=O)n(-c3c(C)ccnc3C(C)C)c3c(F)c4c(cc23)OCc2cccc(Cl)c2-4)[C@@H](C)C1", 496]
]}

Now examine the next entry.
Q: Looking for the measured IC50 of `C=CC(=O)N1CCN(c2nc(=O)n(-c3c(C)ccnc3C(C)C)c3c4c(c(F)cc23)-c2ccccc2CO4)[C@@H](C)C1` , can you help?
Ans: 491

----------
Test system: MIA PaCa-2 cells
Assay: Detection of cell proliferation inhibition, MIA PaCa-2 (Cell-titer Glo, 96 h)
Format: cell-based
Conditions: Homo sapiens, read-out: IC50 (nM) MIA PaCa-2
Entries annotated with measured IC50

Below, 3 compounds whose answers are already recorded.
{"columns": ["compound", "IC50"],
 "data": [
  ["C=CC(=O)N1CCN(c2nc(=O)n(-c3c(C)ccnc3C(C)C)c3c4c(c(Cl)cc23)-c2c(ccc(F)c2F)CO4)[C@@H](C)C1 [Example 18]", "< 50 nM"],
  ["C=CC(=O)N1CCN(c2nc(=O)n(-c3c(C)ccnc3C(C)C)c3c4c(c(Cl)cc23)-c2c(ccc(F)c2F)CCO4)[C@@H](C)C1 [Example 30]", "< 50 nM"],
  ["C=CC(=O)N1CCN(c2nc(=O)n(-c3c(CC)cncc3CC)c3c4c(c(Cl)cc23)-c2c(F)cccc2CCO4)[C@@H](C)C1 [Example 31]", "< 50 nM"]
]}

Now examine the next entry.
Q: Looking for the measured IC50 of C=CC(=O)N1CCN(c2nc(=O)n(-c3c(C4CC4)ncnc3C3CC3)c3c4c(c(Cl)cc23)-c2c(F)cccc2CCO4)[C@@H](C)C1 [Example 32] , can you help?
Ans: < 50 nM
